Tested on: HeLa Kyoto
EXPERIMENTAL_PROTOCOL: thermal stability score vs G1/S (z-score of summed log2 fold changes over temperatures); higher = more thermally stable than in G1/S
SETUP_CONDITIONS: cell cycle stage: early G1 (4.5 h after nocodazole release)
Could you please report measured thermal stability score for the items listed next?
Give bare numbers.

Field: example entries. Status: answers known.
[Q] Which thermal stability score value belongs to MGEFNEKKTTCGTVCLKYLLFTYNCCFWLAGLAVMAVGIWTLALKSDYISLLASGTYLATAYILVVAGTVVMVTGVLGCCATFKERRNLLRLYFILLLIIFLLEIIAGILAYAYYQQLNTELKENLKDTMTKRYHQPGHEAVTSAVDQLQQEFHCCGSNNSQDWRDSEWIRSQEAGGRVVPDSCCKTVVALCGQRDHASNIYKVEGGCITKLETFIQEHLRVIGAVGIGIACVQVFGMIFTCCLYRSLKLEHY [CD151] ?
[A] 0.401

[Q] Item MSAEVETSEGVDESEKKNSGALEKENQMRMADLSELLKEGTKEAHDRAENTQFVKDFLKGNIKKELFKLATTALYFTYSALEEEMERNKDHPAFAPLYFPMELHRKEALTKDMEYFFGENWEEQVQCPKAAQKYVERIHYIGQNEPELLVAHAYTRYMGDLSGGQVLKKVAQRALKLPSTGEGTQFYLFENVDNAQQFKQLYRARMNALDLNMKTKERIVEEANKAFEYNMQIFNELDQAGSTLARETLEDGFPVHDGKGDMRKCPFYAAEQDKGALEGSSCPFRTAMAVLRKPSLQFILAAGVALAAGLLAWYYM [HMOX2] has what recorded thermal stability score?
[A] 0.884

[Q] Which thermal stability score is listed for MGNVLAASSPPAGPPPPPAPALVGLPPPPPSPPGFTLPPLGGSLGAGTSTSRSSERTPGAATASASGAAEDGACGCLPNPGTFEECHRKCKELFPIQMEGVKLTVNKGLSNHFQVNHTVALSTIGESNYHFGVTYVGTKQLSPTEAFPVLVGDMDNSGSLNAQVIHQLGPGLRSKMAIQTQQSKFVNWQVDGEYRGSDFTAAVTLGNPDVLVGSGILVAHYLQSITPCLALGGELVYHRRPGEEGTVMSLAGKYTLNNWLATVTLGQAGMHATYYHKASDQLQVGVEFEASTRMQDTSVSFGYQLDLPKANLLFKGSVDSNWIVGATLEKKLPPLPLTLALGAFLNHRKNKFQCGFGLTIG [TOMM40] ?
[A] -1.53

[Q] Recorded thermal stability score for MARLWGALSLWPLWAAVPWGGAAAVGVRACSSTAAPDGVEGPALRRSYWRHLRRLVLGPPEPPFSHVCQVGDPVLRGVAAPVERAQLGGPELQRLTQRLVQVMRRRRCVGLSAPQLGVPRQVLALELPEALCRECPPRQRALRQMEPFPLRVFVNPSLRVLDSRLVTFPEGCESVAGFLACVPRFQAVQISGLDPNGEQVVWQASGWAARIIQHEMDHLQGCLFIDKMDSRTFTNVYWMKVND [PDF] , please?
[A] 1.03

More entries:
[Q] Could you share which thermal stability score value was measured for MGKGDPKKPRGKMSSYAFFVQTCREEHKKKHPDASVNFSEFSKKCSERWKTMSAKEKGKFEDMAKADKARYEREMKTYIPPKGETKKKFKDPNAPKRPPSAFFLFCSEYRPKIKGEHPGLSIGDVAKKLGEMWNNTAADDKQPYEKKAAKLKEKYEKDIAAYRAKGKPDAAKKGVVKAEKSKKKKEEEEDEEDEEDEEEEEDEEDEDEEEDDDDE [HMGB1] ?
[A] 3.27

###

For each of the sequences below, state its solubility change mitosis (log2).
Test system: HeLa Kyoto
EXPERIMENTAL_PROTOCOL: solubility change mitosis vs G1/S (difference of NP-40 vs SDS log2 ratios) (log2 ratio difference); higher = more soluble in mitosis
Numbers only.

Worked cases, solubility change mitosis (log2) given:
[Q] What measured solubility change mitosis (log2) goes with MAASRLELNLVRLLSRCEAMAAEKRDPDEWRLEKYVGALEDMLQALKVHASKPASEVINEYSWKVDFLKGMLQAEKLTSSSEKALANQFLAPGRVPTTARERVPATKTVHLQSRARYTSEMRSELLGTDSAEPEMDVRKRTGVAGSQPVSEKQLAAELDLVLQRHQNLQEKLAEEMLGLARSLKTNTLAAQSVIKKDNQTLSHSLKMADQNLEKLKTESERLEQHTQKSVNWLLWAMLIIVCFIFISMILFIRIMPKLK [USE1] ?
[A] -0.0501

[Q] Value lookup for solubility change mitosis (log2); key = MTPLCPRPALCYHFLTSLLRSAMQNARGARQRAEAAVLSGPGPPLGRAAQHGIPRPLSSAGRLSQGCRGASTVGAAGWKGELPKAGGSPAPGPETPAISPSKRARPAEVGGMQLRFARLSEHATAPTRGSARAAGYDLYSAYDYTIPPMEKAVVKTDIQIALPSGCYGRVAPRSGLAAKHFIDVGAGVIDEDYRGNVGVVLFNFGKEKFEVKKGDRIAQLICERIFYPEIEEVQALDDTERGSGGFGSTGKN [DUT]
[A] -0.0703

Okay, next one:
[Q] Data request, read-out solubility change mitosis (log2), for MTQQPLRGVTSLRFNQDQSCFCCAMETGVRIYNVEPLMEKGHLDHEQVGSMGLVEMLHRSNLLALVGGGSSPKFSEISVLIWDDAREGKDSKEKLVLEFTFTKPVLSVRMRHDKIVIVLKNRIYVYSFPDNPRKLFEFDTRDNPKGLCDLCPSLEKQLLVFPGHKCGSLQLVDLASTKPGTSSAPFTINAHQSDIACVSLNQPGTVVASASQKGTLIRLFDTQSKEKLVELRRGTDPATLYCINFSHDSSFLCASSDKGTVHIFALKDTRLNRRSALARVGKVGPMIGQYVDSQWSLASFTVPAESACICAFGRNTSKNVNSVIAICVDGTFHKYVFTPDGNCNREAFDVYLDICDDDDF [WDR45]
[A] -0.0635

###

Tested on: HeLa Kyoto
EXPERIMENTAL_PROTOCOL: thermal stability score vs G1/S (z-score of summed log2 fold changes over temperatures); higher = more thermally stable than in G1/S
SETUP_CONDITIONS: cell cycle stage: early G1 (4.5 h after nocodazole release)
Label yes when thermal stability score is at or above -0.1; anything below gets no.

Consider the following illustrative entries.
[Q] Is thermal stability score at least -0.1? Consider MATTAAPAGGARNGAGPEWGGFEENIQGGGSAVIDMENMDDTSGSSFEDMGELHQRLREEEVDADAADAAAAEEEDGEFLGMKGFKGQLSRQVADQMWQAGKRQASRAFSLYANIDILRPYFDVEPAQVRSRLLESMIPIKMVNFPQKIAGELYGPLMLVFTLVAILLHGMKTSDTIIREGTLMGTAIGTCFGYWLGVSSFIYFLAYLCNAQITMLQMLALLGYGLFGHCIVLFITYNIHLHALFYLFWLLVGGLSTLRMVAVLVSRTVGPTQRLLLCGTLAALHMLFLLYLHFAYHKVVEGILDTLEGPNIPPIQRVPRDIPAMLPAARLPTTVLNATAKAVAVTLQSH [YIPF3]
[A] no

[Q] Assess whether reported thermal stability score for MADPRVRQIKIKTGVVKRLVKEKVMYEKEAKQQEEKIEKMRAEDGENYDIKKQAEILQESRMMIPDCQRRLEAAYLDLQRILENEKDLEEAEEYKEARLVLDSVKLEA [TBCA] sits at -0.1 or higher.
[A] no

---
[Q] Check if thermal stability score >= -0.1 (inclusive). Item: ARHGEF12
[A] no

[Q] API: above_or_equal(metric=thermal stability score, cutoff=-0.1) for item MAAVVVAAAGGAGPAVLQVAGLYRGLCAVRSRALGLGLVSPAQLRVFPVRPGSGRPEGGADSSGVGAEAELQANPFYDRYRDKIQLLRRSDPAAFESRLEKRSEFRKQPVGHSRQGDFIKCVEQKTDALGKQSVNRGFTKDKTLSSIFNIEMVKEKTAEEIKQIWQQYFAAKDTVYAVIPAEKFDLIWNRAQSCPTFLCALPRREGYEFFVGQWTGTELHFTALINIQTRGEAAASQLILYHYPELKEEKGIVLMTAEMDSTFLNVAEAQCIANQVQLFYATDRKETYGLVETFNLRPNEFKYMSVIAELEQSGLGAELKCAQNQNKT [ATPAF1]
[A] yes

[Q] Is reported thermal stability score greater than or equal to -0.1 here: MALQGISVVELSGLAPGPFCAMVLADFGARVVRVDRPGSRYDVSRLGRGKRSLVLDLKQPRGAAVLRRLCKRSDVLLEPFRRGVMEKLQLGPEILQRENPRLIYARLSGFGQSGSFCRLAGHDINYLALSGVLSKIGRSGENPYAPLNLLADFAGGGLMCALGIIMALFDRTRTGKGQVIDANMVEGTAYLSSFLWKTQKLSLWEAPRGQNMLDGGAPFYTTYRTADGEFMAVGAIEPQFYELLIKGLGLKSDELPNQMSMDDWPEMKKKFADVFAEKTKAEWCQIFDGTDACVTPVLTFEEVVHHDHNKERGSFITSEEQDVSPRPAPLLLNTPAIPSFKRDPFIGEHTEEILEEFGFSREEIYQLNSDKIIESNKVKASL [AMACR]
[A] yes

[Q] Quick check: does MAACRALKAVLVDLSGTLHIEDAAVPGAQEALKRLRGASVIIRFVTNTTKESKQDLLERLRKLEFDISEDEIFTSLTAARSLLERKQVRPMLLVDDRALPDFKGIQTSDPNAVVMGLAPEHFHYQILNQAFRLLLDGAPLIAIHKARYYKRKDGLALGPGPFVTALEYATDTKATVVGKPEKTFFLEALRGTGCEPEEAVMIGDDCRDDVGGAQDVGMLGILVKTGKYRASDEEKINPPPYLTCESFPHAVDHILQHLL [HDHD2] have thermal stability score greater than or equal to -0.1?
[A] no
